Entries and their Ki values follow.
Biological target: Adenosine receptor A3 (Homo sapiens, UniProt P0DMS8, H272E)
Sequence (P0DMS8 whole entry H272E): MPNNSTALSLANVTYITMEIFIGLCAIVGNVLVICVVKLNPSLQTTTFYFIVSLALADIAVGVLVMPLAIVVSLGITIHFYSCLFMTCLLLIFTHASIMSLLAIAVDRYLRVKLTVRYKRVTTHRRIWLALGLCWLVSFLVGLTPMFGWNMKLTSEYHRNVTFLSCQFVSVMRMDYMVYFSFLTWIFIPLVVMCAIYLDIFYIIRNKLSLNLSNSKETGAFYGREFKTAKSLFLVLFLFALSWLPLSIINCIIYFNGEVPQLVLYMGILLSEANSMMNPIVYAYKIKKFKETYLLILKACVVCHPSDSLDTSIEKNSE
Assay: Binding affinity at Mutant (H272E) human adenosine A3 receptor expressed in COS-7 cells
property_label: Ki (nM)

molecule=Nc1ncnc2c1ncn2[C@@H]1O[C@H](CO)[C@@H](O)[C@H]1N result_number=301
molecule="Nc1nc2ccc(Cl)cc2c2nc(-c3ccco3)nn12 [CGS-15943]" result_number=3260
molecule=CNC(=O)[C@@H]1C[C@H](N)[C@H](n2cnc3c(NCc4cccc(I)c4)nc(Cl)nc32)O1 result_number=2.3
molecule=Nc1nc(Cl)nc2c1ncn2[C@@H]1O[C@H](CO)[C@@H](O)[C@H]1O result_number=11600
molecule=NC[C@H]1O[C@@H](n2cnc3c(N)ncnc32)[C@H](O)[C@@H]1O result_number=425
molecule=Nc1ncnc2c1ncn2[C@@H]1O[C@H](CO)[C@@H](N)[C@H]1O result_number=75
molecule=N[C@@H]1[C@@H](O)[C@H](n2cnc3c(NC4CCCC4)ncnc32)O[C@@H]1CO result_number=0.19
molecule=N=C(N)N[C@H]1[C@@H](O)[C@H](n2cnc3c(N)ncnc32)O[C@@H]1CO result_number=33.3
molecule=N[C@H]1[C@@H](O)[C@H](n2cnc3c(NCc4cccc(I)c4)ncnc32)O[C@@H]1CO result_number=320

----------
Target: Adenosine receptor A3 (Homo sapiens, UniProt P0DMS8)
Sequence (P0DMS8 whole entry): as the sequence (P0DMS8 whole entry H272E) above, with E272H counted along it
Labelling field: enter label 1 if recorded Ki is less than 0.4 µM. Enter label 0 if it equals or exceeds that cut-off.

structure_smiles_string=CNC(=O)[C@@H]1C[C@H](N)[C@H](n2cnc3c(NCc4cccc(I)c4)nc(Cl)nc32)O1 classification="label 1"
structure_smiles_string=Nc1ncnc2c1ncn2[C@@H]1O[C@H](CO)[C@@H](N)[C@H]1O classification="label 0"
structure_smiles_string=NC[C@H]1O[C@@H](n2cnc3c(N)ncnc32)[C@H](O)[C@@H]1O classification="label 0"
structure_smiles_string=Nc1nc2ccc(Cl)cc2c2nc(-c3ccco3)nn12 classification="label 1"
structure_smiles_string=N=C(N)N[C@H]1[C@@H](O)[C@H](n2cnc3c(N)ncnc32)O[C@@H]1CO classification="label 1"

----------
Biological target: Adenosine receptor A3 (Rattus norvegicus, UniProt P28647)
Sequence (P28647 whole entry): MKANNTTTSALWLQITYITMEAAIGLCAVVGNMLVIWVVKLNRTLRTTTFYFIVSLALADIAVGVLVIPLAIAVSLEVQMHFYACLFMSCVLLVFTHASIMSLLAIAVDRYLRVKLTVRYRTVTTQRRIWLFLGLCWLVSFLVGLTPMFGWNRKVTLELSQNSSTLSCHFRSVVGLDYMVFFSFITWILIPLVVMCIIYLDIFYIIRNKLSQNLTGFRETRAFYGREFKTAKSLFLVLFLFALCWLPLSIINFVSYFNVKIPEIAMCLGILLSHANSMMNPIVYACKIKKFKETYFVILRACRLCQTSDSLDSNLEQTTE
Test: Binding affinity at rat adenosine A3 receptor in RBL-2H3 cells
Type: cell-based
pKi: −log10 of the molar value.
property_label: pKi

structure_smiles_string=N[C@@H]1[C@@H](O)[C@H](n2cnc3c(NC4CCCC4)ncnc32)O[C@@H]1CO property_label=pKi result="< 5.00"
structure_smiles_string=Nc1ncnc2c1ncn2[C@@H]1O[C@H](CO)[C@@H](N)[C@H]1O property_label=pKi result=4.08
structure_smiles_string=NC[C@H]1O[C@@H](n2cnc3c(N)ncnc32)[C@H](O)[C@@H]1O property_label=pKi result="< 5.00"
structure_smiles_string=Nc1ncnc2c1ncn2[C@@H]1O[C@H](CO)[C@@H](O)[C@H]1N property_label=pKi result="< 5.00"
